SYSTEM_NAME: human IL-17A / human IL-17RA (Homo sapiens (Human), UniProt Q16552)
Sequence (Q16552 24-155): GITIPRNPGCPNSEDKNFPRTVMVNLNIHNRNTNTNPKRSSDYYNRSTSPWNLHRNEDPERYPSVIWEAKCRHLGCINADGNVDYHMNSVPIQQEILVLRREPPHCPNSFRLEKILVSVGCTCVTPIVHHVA
ASSAY_COMMENT: Human IL-17A biochemical assay (HTRF, blocking of IL-17A binding to IL-17RA)
CONDITION_NOTES: 0.4 nM IL-17A, 0.3 nM IL-17RA, max compound concentration 10 uM
PROPERTY_MEASURED: IC50 (nM)

compound="Cn1nccc1C(=O)N[C@H](C(=O)Nc1ccc2c(c1)CC(N1C[C@@H](C(F)(F)F)NC1=O)C2)C(C1CC1)C1CC1 (stereo partly shown)" property_measured=IC50 result_comparator== reported_measurement=80.6
compound="CNC(=O)C1(N2CC(Cc3ccc(C#N)cc3)NC2=O)Cc2ccc(NC(=O)[C@@H](NC(=O)c3ccnn3C)C3CCCCC3)cc2C1 (stereo partly shown)" property_measured=IC50 result_comparator== reported_measurement=277
compound="Cc1nonc1C(=O)N[C@H](C(=O)Nc1ccc2c(c1)CC(C(=O)Nc1ccc(C3CC3)cc1Cl)(N1C[C@@H](C(C)C)NC1=O)C2)C(C1CC1)C1CC1 (stereo partly shown)" property_measured=IC50 result_comparator=> reported_measurement=10000
compound="CC(C)[C@@H]1CN(C2(C(=O)NC(CO)C3CCCC3)Cc3ccc(NC(=O)[C@@H](NC(=O)c4ccnn4C)C4CCCCC4)cc3C2)C(=O)N1 (stereo partly shown)" property_measured=IC50 result_comparator== reported_measurement=25

Numbers sourced from patent US20250154138A1.
